test system: Escherichia coli TOP10; test: shrunken log2 fold change of peptide-encoding DNA abundance (4.5 h post-induction vs induction); higher = less antimicrobial activity (less host growth inhibition); settings: time post-induction: 4.5 h; library: site-saturation at positions 5, 18, 19, 20;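 also: peptides expressed intracellularly from a pBAD plasmid library in pooled LB shake-flask culture, induced with 0.3% L-arabinose, DNA abundance read by NGS, three biological replicates, DESeq2 with apeglm shrinkage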
For each entry below, report its shrunken log2 fold change value.
// no unit, no text: just the number

Task item: If you can, please state the reported shrunken log2 fold change value of `RRIRMRPPRLPRPRPRPALEPRP` .
Reply: 0.347

Task item: If you can, please state the reported shrunken log2 fold change value of `RRIRMRPPRLPRPRPRPGSKPRP` .
Reply: 0.479

Task item: If you can, please state the reported shrunken log2 fold change value of `RRIRMRPPRLPRPRPRPANQPRP` .
Reply: 0.191

Task item: If you can, please state the reported shrunken log2 fold change value of `RRIRVRPPRLPRPRPRPNIGPRP` .
Reply: -0.0964

Task item: If you can, please state the reported shrunken log2 fold change value of `RRIRARPPRLPRPRPRPTWHPRP` .
Reply: 0.419

Task item: If you can, please state the reported shrunken log2 fold change value of `RRIRLRPPRLPRPRPRPTMDPRP` .
Reply: -0.0334

Task item: If you can, please state the reported shrunken log2 fold change value of `RRIRWRPPRLPRPRPRPMMPPRP` .
Reply: 0.0187

Task item: If you can, please state the reported shrunken log2 fold change value of `RRIRDRPPRLPRPRPRPTSYPRP` .
Reply: -0.189

Task item: If you can, please state the reported shrunken log2 fold change value of `RRIRKRPPRLPRPRPRPKRMPRP` .
Reply: 0.296

Task item: If you can, please state the reported shrunken log2 fold change value of `RRIRERPPRLPRPRPRPAHLPRP` .
Reply: 0.301

Task item: If you can, please state the reported shrunken log2 fold change value of `RRIRYRPPRLPRPRPRPFFWPRP` .
Reply: -0.03

Task item: If you can, please state the reported shrunken log2 fold change value of `RRIRCRPPRLPRPRPRPWYPPRP` .
Reply: -0.742

Task item: If you can, please state the reported shrunken log2 fold change value of `RRIRFRPPRLPRPRPRPDWWPRP` .
Reply: -0.0896

Task item: If you can, please state the reported shrunken log2 fold change value of `RRIRHRPPRLPRPRPRPVKWPRP` .
Reply: 0.421

Task item: If you can, please state the reported shrunken log2 fold change value of `RRIRFRPPRLPRPRPRPPQQPRP` .
Reply: -0.0751

Task item: If you can, please state the reported shrunken log2 fold change value of `RRIRSRPPRLPRPRPRPHYGPRP` .
Reply: -0.00176

Task item: If you can, please state the reported shrunken log2 fold change value of `RRIRFRPPRLPRPRPRPLRGPRP` .
Reply: 0.607

Task item: If you can, please state the reported shrunken log2 fold change value of `RRIRPRPPRLPRPRPRPPWDPRP` .
Reply: 0.312

Task item: If you can, please state the reported shrunken log2 fold change value of `RRIRRRPPRLPRPRPRPWKFPRP` .
Reply: -0.0344

Task item: If you can, please state the reported shrunken log2 fold change value of `RRIRYRPPRLPRPRPRPPPIPRP` .
Reply: 0.0596

Task item: If you can, please state the reported shrunken log2 fold change value of `RRIRGRPPRLPRPRPRPKRRPRP` .
Reply: 1.3

Task item: If you can, please state the reported shrunken log2 fold change value of `RRIRDRPPRLPRPRPRPGWDPRP` .
Reply: -0.182

Task item: If you can, please state the reported shrunken log2 fold change value of `RRIRWRPPRLPRPRPRPPDQPRP` .
Reply: 0.694

Task item: If you can, please state the reported shrunken log2 fold change value of `RRIRLRPPRLPRPRPRPSILPRP` .
Reply: -0.57

Task item: If you can, please state the reported shrunken log2 fold change value of `RRIRVRPPRLPRPRPRPMRGPRP` .
Reply: 0.444

Task item: If you can, please state the reported shrunken log2 fold change value of `RRIRQRPPRLPRPRPRPKACPRP` .
Reply: 0.0193

Task item: If you can, please state the reported shrunken log2 fold change value of `RRIRCRPPRLPRPRPRPNYYPRP` .
Reply: -0.868

Task item: If you can, please state the reported shrunken log2 fold change value of `RRIRCRPPRLPRPRPRPITYPRP` .
Reply: -0.362

Task item: If you can, please state the reported shrunken log2 fold change value of `RRIRNRPPRLPRPRPRPEWQPRP` .
Reply: -0.0264

Task item: If you can, please state the reported shrunken log2 fold change value of `RRIRLRPPRLPRPRPRPRAEPRP` .
Reply: 0.0944

Task item: If you can, please state the reported shrunken log2 fold change value of `RRIRERPPRLPRPRPRPPRTPRP` .
Reply: 0.316

Task item: If you can, please state the reported shrunken log2 fold change value of `RRIRTRPPRLPRPRPRPMIVPRP` .
Reply: -0.158

Task item: If you can, please state the reported shrunken log2 fold change value of `RRIRIRPPRLPRPRPRPEDCPRP` .
Reply: 0.00952

Task item: If you can, please state the reported shrunken log2 fold change value of `RRIRWRPPRLPRPRPRPRFDPRP` .
Reply: 0.147

Task item: If you can, please state the reported shrunken log2 fold change value of `RRIRRRPPRLPRPRPRPLGMPRP` .
Reply: 0.471

Task item: If you can, please state the reported shrunken log2 fold change value of `RRIRPRPPRLPRPRPRPYSPPRP` .
Reply: -1.23

Task item: If you can, please state the reported shrunken log2 fold change value of `RRIRARPPRLPRPRPRPDVTPRP` .
Reply: 0.533

Task item: If you can, please state the reported shrunken log2 fold change value of `RRIRSRPPRLPRPRPRPITTPRP` .
Reply: -0.578

Task item: If you can, please state the reported shrunken log2 fold change value of `RRIRKRPPRLPRPRPRPVGEPRP` .
Reply: 1.18

Task item: If you can, please state the reported shrunken log2 fold change value of `RRIRQRPPRLPRPRPRPSIMPRP` .
Reply: -0.0993

Task item: If you can, please state the reported shrunken log2 fold change value of `RRIRPRPPRLPRPRPRPMAKPRP` .
Reply: 0.646

Task item: If you can, please state the reported shrunken log2 fold change value of `RRIRARPPRLPRPRPRPANAPRP` .
Reply: 0.301

Task item: If you can, please state the reported shrunken log2 fold change value of `RRIRTRPPRLPRPRPRPVYHPRP` .
Reply: -1.34

Task item: If you can, please state the reported shrunken log2 fold change value of `RRIRFRPPRLPRPRPRPFENPRP` .
Reply: -0.0822

Task item: If you can, please state the reported shrunken log2 fold change value of `RRIRYRPPRLPRPRPRPIPAPRP` .
Reply: -0.0717

Task item: If you can, please state the reported shrunken log2 fold change value of `RRIRERPPRLPRPRPRPCYHPRP` .
Reply: -0.744

Task item: If you can, please state the reported shrunken log2 fold change value of `RRIRQRPPRLPRPRPRPYFKPRP` .
Reply: -0.454

Task item: If you can, please state the reported shrunken log2 fold change value of `RRIRYRPPRLPRPRPRPERRPRP` .
Reply: 0.197

Task item: If you can, please state the reported shrunken log2 fold change value of `RRIRPRPPRLPRPRPRPYIHPRP` .
Reply: -0.946

Task item: If you can, please state the reported shrunken log2 fold change value of `RRIRWRPPRLPRPRPRPYLQPRP` .
Reply: -0.113

Task item: If you can, please state the reported shrunken log2 fold change value of `RRIRVRPPRLPRPRPRPQQKPRP` .
Reply: -0.027

Task item: If you can, please state the reported shrunken log2 fold change value of `RRIRQRPPRLPRPRPRPHNIPRP` .
Reply: -0.076

Task item: If you can, please state the reported shrunken log2 fold change value of `RRIRLRPPRLPRPRPRPPFPPRP` .
Reply: 0.455

Task item: If you can, please state the reported shrunken log2 fold change value of `RRIRRRPPRLPRPRPRPQPSPRP` .
Reply: 0.231

Task item: If you can, please state the reported shrunken log2 fold change value of `RRIRNRPPRLPRPRPRPFTNPRP` .
Reply: 0.00408

Task item: If you can, please state the reported shrunken log2 fold change value of `RRIRMRPPRLPRPRPRPQGPPRP` .
Reply: 0.246

Task item: If you can, please state the reported shrunken log2 fold change value of `RRIRCRPPRLPRPRPRPCIWPRP` .
Reply: -0.0143

Task item: If you can, please state the reported shrunken log2 fold change value of `RRIRMRPPRLPRPRPRPLKWPRP` .
Reply: 0.196

Task item: If you can, please state the reported shrunken log2 fold change value of `RRIRRRPPRLPRPRPRPPPFPRP` .
Reply: 0.938

Task item: If you can, please state the reported shrunken log2 fold change value of `RRIRFRPPRLPRPRPRPWSMPRP` .
Reply: -0.548

Task item: If you can, please state the reported shrunken log2 fold change value of `RRIRNRPPRLPRPRPRPSHNPRP` .
Reply: -0.643

Task item: If you can, please state the reported shrunken log2 fold change value of `RRIRMRPPRLPRPRPRPRPGPRP` .
Reply: 1.38

Task item: If you can, please state the reported shrunken log2 fold change value of `RRIRPRPPRLPRPRPRPHHMPRP` .
Reply: -0.778
